TARGET: Ba/F3 cell EGFR Exon20 ins NPH (Homo sapiens, UniProt P00533, INS773NPH)
Construct: expressed in transfected cells; host or cells: Ba/F3
ASSAY_PROTOCOL: Ba/F3 cell proliferation suppression, EGFR Exon20 ins NPH
Assay type: cell-based
COND: GI50 class; Ba/F3 cell line with NPH inserted at Exon20 of EGFR; 72 hours
Experimental: The following experiment was carried out to evaluate the suppression activity of the compounds according to the present invention against proliferation of Ba/F3 and lung cancer cells which express EGFR mutations. Of the cancer cell lines expressing the EGFR gene, A549 was cultured after adding 10% FBS (HyClone) to DMEM (Invitrogen), and RPMI-1640 (Invitrogen) with 10% FBS was used for the other cancer cells. […] The result was calculated as a cell growth ratio (%) compared to a control. […]
METRIC_NAME: Ba/F3 (NPH) Activity

Worked examples, 4 compounds total:
In plain terms, C=CC(=O)Nc1cc(Nc2cc(N3OCC[C@@H]3c3cccc(Cl)c3F)ncn2)c(OC)cc1N1CCC(N2CCN(CC)CC2)CC1 [compound 913] has a documented Ba/F3 (NPH) Activity of A (GI50 < 50 nM)

In plain terms, C=CC(=O)Nc1cc(Nc2cc(N3OCC[C@@H]3c3cccc(F)c3Cl)ncn2)c(OC)cc1N1CCC(N2C[C@@H]3C[C@H]2CO3)CC1 [compound 640] has a documented Ba/F3 (NPH) Activity of A (GI50 < 50 nM)

In plain terms, C=CC(=O)Nc1cc(Nc2cc(N3OCC[C@@H]3c3cccc(Cl)c3F)ncn2)c(OC)cc1N1CCN(C2COC2)CC1 [compound 745] has a documented Ba/F3 (NPH) Activity of A (GI50 < 50 nM)

In plain terms, C=CC(=O)Nc1cc(Nc2cc(N3OCC[C@@H]3c3ccc(F)cc3)ncn2)c(OC)cc1N1CCC(N2C[C@@H](C)O[C@@H](C)C2)CC1 [compound 814] has a documented Ba/F3 (NPH) Activity of A (GI50 < 50 nM)

Further cases:
In plain terms, C=CC(=O)Nc1cc(Nc2cc(N3OCC[C@@H]3c3c(F)ccc(F)c3Cl)ncn2)c(OC)cc1N1CCC(N2C[C@H]3C[C@@H]2CO3)CC1 [compound 692] has a documented Ba/F3 (NPH) Activity of A (GI50 < 50 nM)

In plain terms, C=CC(=O)Nc1cc(Nc2cc(N3OCC[C@@H]3c3cc(F)cc(Cl)c3)ncn2)c(OC)cc1N1CCN(C)CC1 [compound 537] has a documented Ba/F3 (NPH) Activity of A (GI50 < 50 nM)

In plain terms, C=CC(=O)Nc1cc(Nc2cc(N3OCC[C@@H]3c3cccc(Cl)c3F)ncn2)c(OC)cc1N1CCC(N2CCC3(CC2)CC3)CC1 [compound 355] has a documented Ba/F3 (NPH) Activity of A (GI50 < 50 nM)

In plain terms, C=CC(=O)Nc1cc(Nc2cc(N3OCC[C@@H]3c3ccc(Cl)c(F)c3)ncn2)c(OC)cc1N1CCC(N2C[C@H]3C[C@@H]2CN3CC)CC1 [compound 859] has a documented Ba/F3 (NPH) Activity of A (GI50 < 50 nM)

In plain terms, C=CC(=O)Nc1cc(Nc2cc(N3OCC[C@@H]3c3cc(F)cc(F)c3)ncn2)c(OC)cc1N1C[C@@H]2CCN(C)[C@@H]2C1 [compound 891] has a documented Ba/F3 (NPH) Activity of A (GI50 < 50 nM)

In plain terms, C=CC(=O)Nc1cc(Nc2cc(N3OCC[C@@H]3c3cccc(Cl)c3F)ncn2)c(OC)cc1N1CCC(N2CCO[C@@H](C)C2)CC1 [compound 356] has a documented Ba/F3 (NPH) Activity of A (GI50 < 50 nM)

In plain terms, C=CC(=O)Nc1cc(Nc2cc(N3OCC[C@@H]3c3cc(F)cc(F)c3)ncn2)c(O[C@H](C)C(F)(F)F)cc1N1CCC(N2CCN(C3CC3)CC2)CC1 [Example 119] has a documented Ba/F3 (NPH) Activity of A (GI50 < 50 nM)
